Values compiled from ChEMBL document CHEMBL1148855.

Test system: Staphylococcus aureus
Test: Antibacterial activity against Staphylococcus aureus ATCC 29213 by micro-broth dilution method
Type: functional
reported-property: MIC (µg/mL)
Please reply with the bare figure in µg/mL and do not write the unit itself.

[
  {
    "compound": "COc1c(N2CCc3sc(CO)cc3C2)c(F)cc2c(=O)c(C(=O)O)cn(C3CC3)c12",
    "unit-name": "µg/mL",
    "MIC": 2
  },
  {
    "compound": "COc1c(N2CCc3sc([N+](=O)[O-])cc3C2)c(F)cc2c(=O)c(C(=O)O)cn(C3CC3)c12",
    "unit-name": "µg/mL",
    "MIC": 4
  }
]

In plain terms, O=C(O)c1cn(C2CC2)c2c(F)c(N3CCc4sccc4C3)c(F)c(F)c2c1=O has a documented MIC of 4

In plain terms, O=C(O)c1cn(C2CC2)c2cc(N3CCNCC3)c(F)cc2c1=O [CIPROFLOXACIN] has a documented MIC of 1

In plain terms, Nc1c(F)c(N2CCc3sccc3C2)c(F)c2c1c(=O)c(C(=O)O)cn2C1CC1 has a documented MIC of 8

In plain terms, COc1c(N2CCc3sc(COC(C)=O)cc3C2)c(F)cc2c(=O)c(C(=O)O)cn(C3CC3)c12 has a documented MIC of 4

In plain terms, COc1c(N2CCc3sc(Br)cc3C2)c(F)cc2c(=O)c(C(=O)O)cn(C3CC3)c12 has a documented MIC of 4

###

Catalogue of MIC values
System: Staphylococcus aureus
Experiment: Antibacterial activity against Staphylococcus aureus ATCC 29213 by micro-broth dilution method
Assay type: functional

Use the examples below as a reference point.
[
  {
    "compound": "COc1c(N2CCc3sc(C(=O)O)cc3C2)c(F)cc2c(=O)c(C(=O)O)cn(C3CC3)c12",
    "measured-target": "Staphylococcus aureus",
    "reported-property": "MIC",
    "result": "2 µg/mL"
  },
  {
    "compound": "COc1c(N2CCc3sc(C=O)cc3C2)c(F)cc2c(=O)c(C(=O)O)cn(C3CC3)c12",
    "measured-target": "Staphylococcus aureus",
    "reported-property": "MIC",
    "result": "≤ 0.125 µg/mL"
  },
  {
    "compound": "O=C(O)c1cn(C2CC2)c2cc(N3CCc4sccc4C3)c(F)cc2c1=O",
    "measured-target": "Staphylococcus aureus",
    "reported-property": "MIC",
    "result": "4 µg/mL"
  },
  {
    "compound": "O=C(O)c1cn(C2CC2)c2cc(N3CCc4sc(Br)cc4C3)c(F)cc2c1=O",
    "measured-target": "Staphylococcus aureus",
    "reported-property": "MIC",
    "result": "4 µg/mL"
  }
]

In plain terms, COc1c(N2CCNC(C)C2)c(F)cc2c(=O)c(C(=O)O)cn(C3CC3)c12 (stereo not given) has a documented MIC of 0.25 µg/mL

###

Tested on: Staphylococcus epidermidis
Assay: Antibacterial activity against Staphylococcus epidermidis ATCC 12228 by micro-broth dilution method
Type: functional
Mark label 1 only for MIC values smaller than 1 µg/mL; exact matches and larger values are label 0.

Reference set, count: 7
[
  {
    "compound": "O=C(O)c1cn(C2CC2)c2cc(N3CCc4sccc4C3)c(F)cc2c1=O",
    "discrete-label": "label 0"
  },
  {
    "compound": "COc1c(N2CCc3sc([N+](=O)[O-])cc3C2)c(F)cc2c(=O)c(C(=O)O)cn(C3CC3)c12",
    "discrete-label": "label 0"
  },
  {
    "compound": "CC(=O)Nc1c(F)c(N2CCc3sccc3C2)c(F)c2c1c(=O)c(C(=O)O)cn2C1CC1",
    "discrete-label": "label 0"
  },
  {
    "compound": "COc1c(N2CCc3sc(C=O)cc3C2)c(F)cc2c(=O)c(C(=O)O)cn(C3CC3)c12",
    "discrete-label": "label 1"
  },
  {
    "compound": "O=C(O)c1cn(C2CC2)c2c(F)c(N3CCc4sccc4C3)c(F)c(F)c2c1=O",
    "discrete-label": "label 0"
  },
  {
    "compound": "C[C@@H]1CN(c2c(F)c(N)c3c(=O)c(C(=O)O)cn(C4CC4)c3c2F)C[C@H](C)N1",
    "discrete-label": "label 1"
  },
  {
    "compound": "Nc1c(F)c(N2CCc3sccc3C2)c(F)c2c1c(=O)c(C(=O)O)cn2C1CC1",
    "discrete-label": "label 0"
  }
]

Next item in the queue.
# input For O=C(O)c1cn(C2CC2)c2cc(N3CCNCC3)c(F)cc2c1=O , is the recorded MIC below the cut-off of 1 µg/mL?
# output label 1
